Where these numbers come from: patent US20250270190A1

Target: c-kit autophosphorylation (Phospho c-Kit Tyr721) in HMC 1.1 (exon 11/13) cells, V654A (Homo sapiens, UniProt P10721, V560G/V654A)
Construct: endogenous in cells
Sequence (P10721 26-976 V560G/V654A): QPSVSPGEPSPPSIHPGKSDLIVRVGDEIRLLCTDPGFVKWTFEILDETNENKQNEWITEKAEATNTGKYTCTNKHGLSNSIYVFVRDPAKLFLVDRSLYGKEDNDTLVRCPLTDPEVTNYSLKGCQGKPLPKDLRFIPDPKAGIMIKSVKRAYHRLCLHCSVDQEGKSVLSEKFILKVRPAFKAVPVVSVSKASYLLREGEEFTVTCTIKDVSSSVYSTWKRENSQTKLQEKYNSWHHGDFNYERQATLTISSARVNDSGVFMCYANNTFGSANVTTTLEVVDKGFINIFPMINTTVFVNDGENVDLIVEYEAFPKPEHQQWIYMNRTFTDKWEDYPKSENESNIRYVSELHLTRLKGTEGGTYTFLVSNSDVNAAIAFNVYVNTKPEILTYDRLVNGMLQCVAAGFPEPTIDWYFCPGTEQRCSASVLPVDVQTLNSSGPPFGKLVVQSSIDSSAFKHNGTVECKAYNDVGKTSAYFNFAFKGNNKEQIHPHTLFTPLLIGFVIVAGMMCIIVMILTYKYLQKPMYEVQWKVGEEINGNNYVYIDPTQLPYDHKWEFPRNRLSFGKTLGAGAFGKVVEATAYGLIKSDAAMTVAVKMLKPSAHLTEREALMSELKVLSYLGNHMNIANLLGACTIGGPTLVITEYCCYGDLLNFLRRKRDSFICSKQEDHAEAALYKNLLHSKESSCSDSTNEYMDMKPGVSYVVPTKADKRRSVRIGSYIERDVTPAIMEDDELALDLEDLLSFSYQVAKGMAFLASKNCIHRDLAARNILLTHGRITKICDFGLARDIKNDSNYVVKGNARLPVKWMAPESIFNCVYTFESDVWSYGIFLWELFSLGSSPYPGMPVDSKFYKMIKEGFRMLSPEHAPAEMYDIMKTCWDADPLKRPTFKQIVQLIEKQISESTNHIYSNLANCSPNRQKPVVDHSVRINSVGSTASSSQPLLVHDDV
Assay: pKIT Meso Scale Discovery (MSD) assay, inhibition of autophosphorylation of KIT, HMC1.1_V654A
Details: Table 1, cell line not named for Table 1, b1056 names pKIT HMC1.1_V654A, read-out: Code (IC50 for inhibition of autophosphorylation of KIT, pKIT MSD assay)
I'd be grateful if you could share measured IC50 for these entries.

Exercise: Request the reported IC50 associated with CNC(=O)c1cnc(Nc2cc(N)nc(C(F)F)n2)cc1NC(CF)CF
Solution: < 0.01 µM

Exercise: Would you mind telling me what IC50 value was observed for CC(C)NC(=O)c1cnc(Nc2cc(N)nc(C(F)F)n2)cc1NC1CC1 ?
Solution: < 0.01 µM

Exercise: Quick check: IC50 of CNC(=O)c1cnc(Nc2cc(N)nc(CF)n2)cc1N[C@H](C)C(F)F ?
Solution: < 0.01 µM

Exercise: GET /values?readout=IC50&item= CNc1cc(Nc2cc(N)nc(C(F)F)n2)ncc1C(=O)NCc1ccccn1
Solution: 0.01 to 0.04 µM

Exercise: Looking for the measured IC50 of CNc1cc(Nc2cc(N)nc(CF)n2)ncc1C(=O)NC1CC1 , can you help?
Solution: 0.01 to 0.04 µM

Exercise: What IC50 value was documented for this molecule, Nc1cc(Nc2cc(OC3CC3)c(-c3cnn(C4CNC4)c3)cn2)nc(C(F)F)n1 ?
Solution: 0.01 to 0.04 µM

Exercise: Sample CNC(=O)c1cnc(Nc2cc(N)nc([C@H](C)F)n2)cc1NC — what was its IC50?
Solution: 0.01 to 0.04 µM

Exercise: // IC50 lookup, key: Cn1cc(-c2cnc(Nc3cc(N)nc(C(F)F)n3)cc2OCc2cccc(N)c2)cn1
Solution: < 0.01 µM

Exercise: What measured IC50 goes with C[C@H](CF)Nc1cc(Nc2cc(N)nc(C(F)F)n2)ncc1C(=O)NCc1cocn1 ?
Solution: 0.01 to 0.04 µM
